Kindly state percentage damage caused to the plant, IPOHE (five-point scale) for each of the entries shown.
System: Ipomoea hederacea (IPOHE)
Assay: Post-emergence Test, Ipomoea hederacea (IPOHE)
Format: in vivo
Set-up: key: 5=81-100%, 4=61-80%, 3=41-60%, 2=21-40%, 1=0-20% damage
Conditions: 1000 g/ha, evaluated after 13 days

# annotated cases, reported percentage damage caused to the plant, IPOHE (five-point scale) shown
{"chemical-string": "C=CCOc1ccn(Cc2cc(=O)c(C(=O)O)c(-c3ccc(Cl)c(Cl)c3)n2CC)n1", "test-system": "Ipomoea hederacea (IPOHE)", "reported-result": "2 (2=21-40%)"}
{"chemical-string": "CCn1c(Cn2ccc(OCC(F)(F)F)n2)cc(=O)c(C(=O)O)c1-c1ccc(Cl)c(Cl)c1", "test-system": "Ipomoea hederacea (IPOHE)", "reported-result": "3 (3=41-60%)"}
{"chemical-string": "CCn1c(Cn2ccc(C(F)(F)F)n2)cc(=O)c(C(=O)O)c1-c1ccc(N)c(Cl)c1", "test-system": "Ipomoea hederacea (IPOHE)", "reported-result": "1 (1=0-20%)"}
{"chemical-string": "CCn1c(Cn2ccc(C(F)(F)F)n2)cc(=O)c(C(=O)OC)c1-c1ccc(Cl)cc1", "test-system": "Ipomoea hederacea (IPOHE)", "reported-result": "2 (2=21-40%)"}
{"chemical-string": "CCn1c(Cn2ccc(C(F)(F)F)n2)cc(=O)c(C(=O)O)c1-c1ccc(F)c(F)c1", "test-system": "Ipomoea hederacea (IPOHE)", "reported-result": "2 (2=21-40%)"}

For the 3 compounds below, give their percentage damage caused to the plant, IPOHE (five-point scale) values.
1. CCOC(=O)c1c(-c2ccc(Cl)c(Cl)c2)n(CC)c(Cn2ccnc2)c(Br)c1=O
2. CCn1c(Cn2cc(C(F)F)cn2)cc(=O)c(C(=O)O)c1-c1ccc(Cl)c(Cl)c1
3. CCn1c(Cn2cnc([N+](=O)[O-])c2)cc(=O)c(C(=O)O)c1-c1ccc(Cl)c(Cl)c1

Output:
1: 1 (1=0-20%); 2: 3 (3=41-60%); 3: 2 (2=21-40%)
